System: UO-31
Experiment: Cytotoxicity against human UO31 cells assessed as cell growth at 10 uM after 48 hrs by SRB assay relative to control
Assay type: functional
Details: UO-31, 48 h, read-out: Activity
TEST READOUT: growth at 10 µM (%)
Give the quantity in %, number only.

The recorded growth at 10 µM for `CSC1=Nc2c(c(C)c(-c3ccccc3)n2CCCC(=O)O)C2=NC(=O)CN12` is 82

The value of growth at 10 µM measured for the compound `CSC1=Nc2c(c(C)c(-c3ccccc3)n2CCCN2CCN(C)CC2)C2=NC(=O)CN12` turned out to be 78

Per the record, `CCOC(=O)CCCn1c(C)c(C)c2c1N=C(SC)N1CC(=O)N=C21` has growth at 10 µM of 81
